- targetDesc: HLA-DRB1*04:01 (Homo sapiens, UniProt P01903+P01911, A100K/A169T/F76Y/I96L/K127E/L162R/M171V/N62H/P40V/Q125Y/R42H/S133A/S149N/S66Y/V115G/V209L/W38E)
- Construct: EBV transformed homozygous cell lines were used as sources of MHC molecules; endogenous in cells; host or cells: EBV transformed homozygous cell lines
- procedureSummary: HLA class II peptide binding, inhibition of radiolabeled peptide binding to purified MHC
- studyConditions: read-out: DRB1*04:01 binding capacity, WT peptide (IC50 nM)
Ends that are not written are not given here.
Assignment: determine reported IC50 for the given sequences.
Numbers only, in nM.

// known answers, use as guide
Prompt: // returns reported IC50 for input SSRSYVTTSTRTYSL [Vimentin 26 WT]
Completion: 245

Prompt: Now give it for GGPGTASRPSSSRSY [Vimentin 16 WT] too.
Completion: 39500

Prompt: Again, but for FKNTRTNEKVELQEL [Vimentin 96 WT]
Completion: 1790

Prompt: Could you do the same for IDVDVSKPDLTAALR [Vimentin 256 WT] , please?
Completion: 21400

Prompt: Next record, please: RSSVPGVRLLQDSVD [Vimentin 71 WT]
Completion: 4620

Others:
Prompt: # query: IC50 of entry ARLDLERKVESLQEE [Vimentin 216 WT]
Completion: 17200

----------
- targetDesc: HLA-DRB1*04:01 (Homo sapiens, UniProt P01903+P01911, A100K/A169T/F76Y/I96L/K127E/L162R/M171V/N62H/P40V/Q125Y/R42H/S133A/S149N/S66Y/V115G/V209L/W38E)
- Construct: EBV transformed homozygous cell lines were used as sources of MHC molecules; endogenous in cells; host or cells: EBV transformed homozygous cell lines
- procedureSummary: HLA class II peptide binding, inhibition of radiolabeled peptide binding to purified MHC
- studyConditions: citrullinated 15-mer peptide (X = citrulline); purified HLA-DRB1*04:01; read-out: DRB1*04:01 binding capacity, Cit peptide (IC50 nM)
Square brackets hold non-standard residues; d marks the D form. Peptide text beside a SMILES is read from it. Cit = NC(=O)NCCC[C@H](N)C(=O)O
measuredAttribute: IC50

Some entries whose results are on file:
Prompt: Reported IC50, compound CC(C)[C@H](NC(=O)CNC(=O)[C@H](C)NC(=O)[C@H](C)N)C(=O)N[C@@H](CCCCN)C(=O)NCC(=O)N[C@@H](CC(=O)O)C(=O)N[C@@H](CCCNC(N)=O)C(=O)NCC(=O)N[C@@H](CCC(=O)O)C(=O)N[C@H](C(=O)NCC(=O)N[C@@H](C)C(=O)N[C@H](C(=O)NCC(=O)O)C(C)C)[C@@H](C)O [AAGVKGDXGETGAVG] (H-AAGVKGD[Cit]GETGAVG-OH) : ____
Completion: > 40000 nM

Prompt: What about CC(C)C[C@H](NC(=O)CNC(=O)[C@H](CCCNC(N)=O)NC(=O)[C@H](CCC(=O)O)NC(=O)CNC(=O)[C@@H]1CCCN1C(=O)[C@H](CCC(=O)O)NC(=O)CNC(=O)[C@H](C)N)C(=O)N[C@@H](CCCCN)C(=O)NCC(=O)N[C@@H](Cc1c[nH]cn1)C(=O)N[C@@H](CCCNC(=N)N)C(=O)NCC(=O)N[C@@H](Cc1ccccc1)C(=O)O [AGEPGEXGLKGHRGF] (H-AGEPGE[Cit]GLKGHRGF-OH) ?
Completion: > 40000 nM

We now examine a further compound.
Prompt: Using the record for CC[C@H](C)[C@H](NC(=O)CNC(=O)[C@H](CCCNC(=N)N)NC(=O)[C@H](CCC(N)=O)NC(=O)CNC(=O)[C@H](C)NC(=O)[C@@H](N)CC(C)C)C(=O)N[C@H](C(=O)NCC(=O)N[C@@H](CC(C)C)C(=O)N1CCC[C@H]1C(=O)NCC(=O)N[C@@H](CCC(N)=O)C(=O)N[C@@H](CCCNC(N)=O)C(=O)NCC(=O)O)C(C)C [LAGQRGIVGLPGQXG] (H-LAGQRGIVGLPGQ[Cit]G-OH) , report its IC50.
Completion: 5040 nM

----------
- targetDesc: DRB3*01:01 (Homo sapiens, UniProt P01903+P79483)
- Construct: EBV transformed homozygous cell lines were used as sources of MHC molecules; endogenous in cells; host or cells: EBV transformed homozygous cell lines
- procedureSummary: HLA class II peptide binding, inhibition of radiolabeled peptide binding to purified MHC
- studyConditions: Other DR, competition with radiolabeled peptide, two-day incubation, three or more independent experiments
Ends that are not written are not given here.
Assign pIC50 to each entry below.
One number for each entry, as −log10 of the molar value.

Prompt: Can you share its pIC50? I mean this sequence: LQYMRADQAAGGLR [Collagen II 1236–1249 WT]
Completion: 7.17

Next up:
Prompt: Any idea what pIC50 was measured for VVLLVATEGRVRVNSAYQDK [Aggrecan 84–103 WT] ?
Completion: 5.07

----------
Can you tell me pIC50 for the items I'm about to list?
- targetDesc: DRB4*01:01 (Homo sapiens, UniProt P01903+P13762, G164S)
- Construct: EBV transformed homozygous cell lines were used as sources of MHC molecules; endogenous in cells; host or cells: EBV transformed homozygous cell lines
- procedureSummary: HLA class II peptide binding, inhibition of radiolabeled peptide binding to purified MHC
- studyConditions: Other DR, competition with radiolabeled peptide, two-day incubation, three or more independent experiments
Ends that are not written are not given here.
One number for each entry, as −log10 of the molar value.

Batch of 4 sequences: report pIC50 for each.
1. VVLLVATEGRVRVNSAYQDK [Aggrecan 84–103 WT]
2. SAVRLRSSVPGVR [Vimentin 66–78 WT]
3. NQDFTNRINKLKNS [Fibrinogen 78–91 WT]
4. LQYMRADQAAGGLR [Collagen II 1236–1249 WT]

Completion:
1: 6.02; 2: 5.69; 3: 5.11; 4: 7.10

----------
- targetDesc: HLA-DRB1*04:01 (Homo sapiens, UniProt P01903+P01911, A100K/A169T/F76Y/I96L/K127E/L162R/M171V/N62H/P40V/Q125Y/R42H/S133A/S149N/S66Y/V115G/V209L/W38E)
- Construct: EBV transformed homozygous cell lines were used as sources of MHC molecules; endogenous in cells; host or cells: EBV transformed homozygous cell lines
- procedureSummary: HLA class II peptide binding, inhibition of radiolabeled peptide binding to purified MHC
- studyConditions: citrullinated 15-mer peptide (X = citrulline); purified HLA-DRB1*04:01; read-out: DRB1*04:01 binding capacity, Cit peptide (IC50 nM)
Square brackets hold non-standard residues; d marks the D form. Peptide text beside a SMILES is read from it. Cit = NC(=O)NCCC[C@H](N)C(=O)O
measuredAttribute: IC50

Prompt: Quick check: IC50 of C[C@H](NC(=O)CNC(=O)[C@H](C)NC(=O)[C@H](CCC(=O)O)NC(=O)CNC(=O)[C@H](CCCNC(N)=O)NC(=O)[C@H](CC(=O)O)NC(=O)CNC(=O)[C@H](CCC(N)=O)NC(=O)[C@H](CCCCN)NC(=O)CNC(=O)[C@@H](NC(=O)[C@@H]1CCCN1)[C@@H](C)O)C(=O)N[C@@H](CCC(N)=O)C(=O)NCC(=O)O [PTGKQGDXGEAGAQG] (H-PTGKQGD[Cit]GEAGAQG-OH; N-terminus and C-terminus assumed) ?
Completion: > 40000 nM

Prompt: And what about the compound CSCC[C@H](N)C(=O)N[C@@H](C)C(=O)N[C@@H](CCCNC(N)=O)C(=O)N[C@@H](Cc1c[nH]cn1)C(=O)N[C@@H](CC(C)C)C(=O)N[C@@H](CCCNC(=N)N)C(=O)N[C@@H](CCC(=O)O)C(=O)N[C@@H](Cc1ccc(O)cc1)C(=O)N[C@@H](CCC(N)=O)C(=O)N[C@@H](CC(=O)O)C(=O)N[C@@H](CC(C)C)C(=O)N[C@@H](CC(C)C)C(=O)N[C@@H](CC(N)=O)C(=O)N[C@H](C(=O)N[C@@H](CCCCN)C(=O)O)C(C)C [MAXHLREYQDLLNVK] (H-MA[Cit]HLREYQDLLNVK-OH) ?
Completion: 4320 nM

Prompt: What do you have for CC[C@H](C)[C@H](NC(=O)[C@H](CC(C)C)NC(=O)[C@H](CC(C)C)NC(=O)[C@@H](NC(=O)[C@H](CCCNC(N)=O)NC(=O)[C@H](CCCCN)NC(=O)[C@H](CO)NC(=O)[C@H](Cc1c[nH]cn1)NC(=O)[C@@H](N)[C@@H](C)O)[C@@H](C)O)C(=O)N[C@@H](CCCCN)C(=O)N[C@H](C(=O)N[C@H](C(=O)N[C@@H](CCC(=O)O)C(=O)N[C@H](C(=O)N[C@@H](CCCNC(=N)N)C(=O)O)[C@@H](C)O)C(C)C)[C@@H](C)O [THSKXTLLIKTVETR] (H-THSK[Cit]TLLIKTVETR-OH) ?
Completion: 6430 nM

Prompt: Please do the same for CSCC[C@H](NC(=O)[C@H](CCC(N)=O)NC(=O)[C@H](CCCNC(=N)N)NC(=O)[C@H](CCC(=O)O)NC(=O)[C@H](CC(C)C)NC(=O)[C@H](CO)NC(=O)[C@H](CCC(=O)O)NC(=O)[C@H](CC(N)=O)NC(=O)[C@@H](NC(=O)CNC(=O)[C@H](CCCCN)NC(=O)[C@H](CC(C)C)NC(=O)[C@H](C)NC(=O)[C@@H](N)CC(=O)O)[C@@H](C)O)C(=O)N[C@@H](CCCNC(N)=O)C(=O)O [DALKGTNESLERQMX] (H-DALKGTNESLERQM[Cit]-OH) as well.
Completion: 17500 nM

Prompt: Repeat with `CC[C@H](C)[C@H](NC(=O)[C@H](CC(=O)O)NC(=O)[C@H](CC(C)C)NC(=O)[C@H](C)NC(=O)[C@H](CCSC)NC(=O)[C@H](CCCCN)NC(=O)[C@@H](NC(=O)[C@H](CC(N)=O)NC(=O)[C@H](CC(C)C)NC(=O)[C@H](CC(C)C)NC(=O)[C@H](CC(=O)O)NC(=O)[C@H](CCC(N)=O)NC(=O)[C@H](Cc1ccc(O)cc1)NC(=O)[C@H](CCC(=O)O)NC(=O)[C@@H](N)CCCNC(N)=O)C(C)C)C(=O)O`
Completion: 1070 nM

Prompt: Another: C[C@H](NC(=O)CNC(=O)[C@@H]1CCCN1C(=O)[C@H](CO)NC(=O)CNC(=O)[C@H](CCC(=O)O)NC(=O)[C@@H](N)CCCNC(N)=O)C(=O)N[C@@H](CC(=O)O)C(=O)NCC(=O)N1CCC[C@H]1C(=O)N1CCC[C@H]1C(=O)NCC(=O)N[C@@H](CCCNC(=N)N)C(=O)N[C@@H](CC(=O)O)C(=O)NCC(=O)O [XEGSPGADGPPGRDG] (H-[Cit]EGSPGADGPPGRDG-OH; N-terminus and C-terminus assumed)
Completion: > 40000 nM

Quick one: give me IC50 for each item below, same order please.
1. C[C@H](NC(=O)CNC(=O)[C@H](CCCCN)NC(=O)[C@@H]1CCCN1C(=O)CNC(=O)[C@@H](N)CC(=O)O)C(=O)N[C@@H](CCCNC(N)=O)C(=O)NCC(=O)N[C@@H](CC(=O)O)C(=O)N[C@@H](CO)C(=O)NCC(=O)N1CCC[C@H]1C(=O)N1CCC[C@H]1C(=O)NCC(=O)N[C@@H](CCCNC(=N)N)C(=O)O [DGPKGAXGDSGPPGR] (H-DGPKGA[Cit]GDSGPPGR-OH; N-terminus and C-terminus assumed)
2. C[C@H](NC(=O)[C@@H]1CCCN1C(=O)CNC(=O)[C@@H]1CCCN1)C(=O)NCC(=O)N1CCC[C@H]1C(=O)N[C@H](C(=O)NCC(=O)N[C@@H](CCCCN)C(=O)N[C@@H](CCC(N)=O)C(=O)NCC(=O)N[C@@H](CC(=O)O)C(=O)N[C@@H](CCCNC(N)=O)C(=O)NCC(=O)N[C@@H](CCC(=O)O)C(=O)O)[C@@H](C)O [PGPAGPTGKQGDXGE] (H-PGPAGPTGKQGD[Cit]GE-OH; N-terminus and C-terminus assumed)
3. CC[C@H](C)[C@H](NC(=O)[C@@H](N)CCC(=O)O)C(=O)N[C@@H](C)C(=O)N[C@H](C(=O)N[C@@H](Cc1ccc(O)cc1)C(=O)N[C@@H](CCCNC(N)=O)C(=O)N[C@@H](CCCCN)C(=O)N[C@@H](CC(C)C)C(=O)N[C@@H](CC(C)C)C(=O)N[C@@H](CCC(=O)O)C(=O)NCC(=O)N[C@@H](CCC(=O)O)C(=O)N[C@@H](CCC(=O)O)C(=O)N[C@@H](CO)C(=O)N[C@@H](CCCNC(=N)N)C(=O)O)[C@@H](C)O [EIATYXKLLEGEESR] (H-EIATY[Cit]KLLEGEESR-OH)

Completion:
["> 40000 nM", "> 40000 nM", "3810 nM"]
